src = the supplement of paper PMC10065799

Tested on: AncSZ
Test: phosphorylation enrichment, bacterial display (enrichment ratio); higher = better substrate or ligand; peptides without Tyr show the background
PROPERTY_MEASURED: phosphorylation enrichment

VQVAYYTVMMN [SPATA17_Y84_M86V]	1.79
DQVEQYNKELE [LMNA_Y259_K260N]	1.09
EEEPVYEAEPE [HCLS1_Y360]	1.49

Tell me the measured phosphorylation enrichment of EIPTQYEAMAS [GFAP_Y242_R239P] , please.
0.982

What value of measured phosphorylation enrichment is listed for AKKVFYVNETR [SHH_Y253_I255N] ?
0.576

Query (sequence): LSPPVYLTNEW [NRK_Y885_I880L] ; field requested: phosphorylation enrichment
0.935

Which phosphorylation enrichment value belongs to DDLEVYLKHPL [SACS_Y3477_L3481P] ?
1.53

Return reported phosphorylation enrichment; argument: TLKVGYKEKQR [EPHA3_Y659_T660K]
0.367

Given the entry FCRIMYDIFPF [INTS13_Y67_YF] , report its measured phosphorylation enrichment.
1.71

Consider the sequence shown here: LAARYYNWVSF [FLT4_Y1231] What is its recorded phosphorylation enrichment?
1.55

###

Target: MERTK (UniProt Q12866)
Sequence (Q12866 whole entry, looked up): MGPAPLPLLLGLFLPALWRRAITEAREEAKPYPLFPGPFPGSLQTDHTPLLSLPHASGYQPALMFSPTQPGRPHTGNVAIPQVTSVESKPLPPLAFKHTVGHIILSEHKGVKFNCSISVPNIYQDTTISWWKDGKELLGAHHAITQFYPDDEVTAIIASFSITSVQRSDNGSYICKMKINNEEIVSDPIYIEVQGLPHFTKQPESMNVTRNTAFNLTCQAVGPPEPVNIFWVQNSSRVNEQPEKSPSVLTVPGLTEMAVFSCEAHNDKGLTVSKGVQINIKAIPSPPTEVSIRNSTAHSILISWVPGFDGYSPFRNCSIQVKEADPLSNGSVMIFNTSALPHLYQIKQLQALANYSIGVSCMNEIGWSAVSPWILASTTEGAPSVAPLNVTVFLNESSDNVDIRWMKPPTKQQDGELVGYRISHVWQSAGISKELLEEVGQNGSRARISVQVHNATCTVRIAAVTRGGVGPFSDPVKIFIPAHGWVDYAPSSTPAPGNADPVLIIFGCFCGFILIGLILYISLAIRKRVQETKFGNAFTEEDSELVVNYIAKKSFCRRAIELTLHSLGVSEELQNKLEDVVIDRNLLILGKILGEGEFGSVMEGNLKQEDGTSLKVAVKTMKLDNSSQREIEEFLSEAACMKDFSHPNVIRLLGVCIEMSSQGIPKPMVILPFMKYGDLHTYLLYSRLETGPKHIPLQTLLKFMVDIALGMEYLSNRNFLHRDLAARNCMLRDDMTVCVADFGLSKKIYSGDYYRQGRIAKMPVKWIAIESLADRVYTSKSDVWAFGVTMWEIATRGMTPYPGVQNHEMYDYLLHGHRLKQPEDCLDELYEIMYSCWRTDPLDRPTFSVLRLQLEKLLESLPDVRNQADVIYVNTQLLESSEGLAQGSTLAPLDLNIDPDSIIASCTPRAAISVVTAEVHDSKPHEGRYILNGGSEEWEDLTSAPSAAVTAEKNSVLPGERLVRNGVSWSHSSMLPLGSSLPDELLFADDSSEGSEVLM
Experiment: phosphorylation enrichment, bacterial display (enrichment ratio); higher = better substrate or ligand; peptides without Tyr show the background
PROPERTY_MEASURED: phosphorylation enrichment

Reference set, count: 5
ALAHKYPGGGG [HBB_Y146_H147P]	0.334
TPGPNYRPGFN [USH2A_Y463_YF]	0.87
ISSLRYELLEE [TRPC6_Y896]	0.533
LLREWYMIISR [HUWE1_Y4066]	0.433
FGTAQYCCRMG [LRRK2_Y2023_I2020T_YF]	1.79

Param item = GRVYVYHLSEQ [ITGAE_Y551_R552H] ; retrieve measured phosphorylation enrichment.
0.386

###

Target: c-Src SH2
Experiment: SH2 binding enrichment of the phosphorylated peptide, bacterial display (enrichment ratio); higher = better substrate or ligand; peptides without Tyr show the background
PROPERTY_MEASURED: SH2 binding enrichment
Lab note: record just the number, no unit beside it.

Quick one: SH2 binding enrichment for IVAREYYSKAD [CAMK2B_Y107_E110K] ?
2.01

Returns the measured SH2 binding enrichment for the input sequence. Input: LARHMYDKEFF [MET_Y1230_D1228H_YF]
0.546

Which measured SH2 binding enrichment value corresponds to WHHIFYNELRV [ACTG1_Y91_T89I] ?
0.512

Quick one: SH2 binding enrichment of GDEVEYMLVSF [GCLC_Y53] ?
0.407

# lookup: SH2 binding enrichment of VVEFGYEFFAK [PPP1CB_Y254_D252Y_YF]
1.09

Dear colleague, I am looking for the recorded SH2 binding enrichment of the following sequence: STGSRYQPLAS [NCAPD2_Y1325]
0.486

Reported SH2 binding enrichment for KWLEQYTQAIE [LSP1_Y234_Q229K] : what is it?
0.782

# get_value(readout='SH2 binding enrichment', item= FQQLFYLLQIN [IQGAP2_Y890_T894I_YF] )
0.889

Bench note: what SH2 binding enrichment did FLTQHYDAKPQ [ANG_Y38] show?
0.481

Fill blank: measured SH2 binding enrichment of the sequence NPQKSYLIRLF [WAS_Y83_F84L_YF] is ____.
0.672

# SH2 binding enrichment lookup, item GRVYVYHLSEQ [ITGAE_Y551_R552H]
0.907

Which measured SH2 binding enrichment value corresponds to VFLGAYDCFLP [SLC22A5_Y486_R488C_YF] ?
0.951

Which SH2 binding enrichment is reported for this sequence? HIKHNYECLVF [XRCC5_Y416_YF]
4.51

Dear colleague, I am looking for the recorded SH2 binding enrichment of the following sequence: RFVTRYIFNRE [HLA-DQB1_Y62_YF]
0.355

# query: SH2 binding enrichment of entry LYSNAYLSDLA [ALDH1A1_Y119_N121S]
1.11

Given the sequence NFAKMYCNPDA [KNL1_Y489_YF] , what is its reported SH2 binding enrichment?
2.03

// lookup SH2 binding enrichment for ETKENYGKTLK [CHL1_Y291]
0.664

Given ISHVAYRVLGK [TRRAP_Y892] , state its recorded SH2 binding enrichment.
0.488

Entry LVPPRYARSEI [PKP2_Y194] : reported SH2 binding enrichment = ?
0.538

Returns the measured SH2 binding enrichment for the input sequence. Input: LRFKQYLRNPP [SHC1_Y315]
0.477

If you can, please state the reported SH2 binding enrichment value of RLLCEYQELMN [KRT75_Y434_R432C] .
0.54

Would you kindly share the measured SH2 binding enrichment for ALAAPYVLFPS [CEFIP_Y1332_G1337S_YF] ?
4.34

Any idea what its SH2 binding enrichment is? The sequence is GVIRHSVVCST [BTK_Y334_Y334S]
0.586

Given the sequence EKDSNYCLCRT [ASIC2_Y357] , what is its reported SH2 binding enrichment?
0.778

Given the entry GPSTPYTKSKC [SMARCC2_Y324_R329C] , report its measured SH2 binding enrichment.
0.76

###

System: c-Abl (mouse)
Assay: phosphorylation enrichment, bacterial display (enrichment ratio); higher = better substrate or ligand; peptides without Tyr show the background
Class key for phosphorylation enrichment values: lower level = under 0.6, middle level = from 0.6 up to 0.9, upper level = 0.9 and over

LSKDLYLISQM [LARP4_Y141]	upper level
SKGFAYVHFDS [PABPC5_Y149_YF]	middle level
AACQHYGVRTC [NR4A2_Y275]	lower level
SHSMRYFYTAV [HLA-C_Y31_D33Y]	middle level
WVFNHYRCIIW [BRCA2_Y2624_W2626C_YF]	upper level

Note: place this sequence into its band. Item: SQSKGYRPKLF [SIPA1L3_Y1376_G1371S_YF]
lower level

Classify this sequence: LWPIWYSCHRP [MRGPRX1_Y130_R131S]
upper level

###

Target: Fes (UniProt P07332)
Sequence (P07332 whole entry, looked up): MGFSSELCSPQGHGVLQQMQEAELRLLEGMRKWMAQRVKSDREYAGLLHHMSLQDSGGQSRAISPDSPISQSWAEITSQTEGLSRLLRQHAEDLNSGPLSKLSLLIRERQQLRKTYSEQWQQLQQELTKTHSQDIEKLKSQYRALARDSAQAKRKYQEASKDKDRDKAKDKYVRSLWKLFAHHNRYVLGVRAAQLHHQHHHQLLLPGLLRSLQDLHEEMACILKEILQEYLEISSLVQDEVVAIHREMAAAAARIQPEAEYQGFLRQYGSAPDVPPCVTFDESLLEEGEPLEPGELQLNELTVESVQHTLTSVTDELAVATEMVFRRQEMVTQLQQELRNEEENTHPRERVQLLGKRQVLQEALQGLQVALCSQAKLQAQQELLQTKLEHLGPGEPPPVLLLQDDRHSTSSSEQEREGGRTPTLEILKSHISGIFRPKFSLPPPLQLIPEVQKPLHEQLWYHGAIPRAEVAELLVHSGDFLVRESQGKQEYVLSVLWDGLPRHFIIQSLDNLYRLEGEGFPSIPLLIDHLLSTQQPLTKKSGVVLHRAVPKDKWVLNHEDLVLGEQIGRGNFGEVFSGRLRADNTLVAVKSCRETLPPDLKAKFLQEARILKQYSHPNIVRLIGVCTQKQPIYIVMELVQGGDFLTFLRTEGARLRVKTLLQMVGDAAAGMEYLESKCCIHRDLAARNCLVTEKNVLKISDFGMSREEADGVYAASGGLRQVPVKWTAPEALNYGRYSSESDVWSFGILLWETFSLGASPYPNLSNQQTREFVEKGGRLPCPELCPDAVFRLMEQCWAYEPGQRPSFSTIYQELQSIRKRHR
Test: phosphorylation enrichment, bacterial display (enrichment ratio); higher = better substrate or ligand; peptides without Tyr show the background
Decide by phosphorylation enrichment: equal to or exceeding 1 means fulfilled, less means not fulfilled.

Identify whether the reported phosphorylation enrichment of the following sequence is 1 or greater: WGTPEYDSVVA [MAP1A_Y1883_A1881P]
fulfilled

Does the sequence AGIVDYNIIGW [MYH7_Y588] have recorded phosphorylation enrichment that is 1 or more?
fulfilled

Is it the case that DVFVSYDCGKS [SORL1_Y139_Y141C_YF] has phosphorylation enrichment reaching or exceeding 1?
fulfilled

Identify whether the reported phosphorylation enrichment of the following sequence is 1 or greater: RQGKDYIGAIP [KDR_Y951_V952I]
not fulfilled

Has EVLKNYSQQKD [GOLGA4_Y1551_N1552S] a recorded phosphorylation enrichment greater than or equal to 1?
not fulfilled

###

Molecular target: c-Src SH2;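 also: peptide library displayed on the E. coli surface as eCPX fusions, selected cells deep-sequenced, score is each peptide's frequency after selection divided by its frequency in the input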
Assay: SH2 binding enrichment of the phosphorylated peptide, bacterial display (enrichment ratio); higher = better substrate or ligand; peptides without Tyr show the background
Assign classes using reported SH2 binding enrichment values and the ranges low bracket (below 0.5), middle bracket (0.5 to below 0.8), high bracket (0.8 or more), please.

HVSISYDIPLT [GAB1_Y307_P311L]	high bracket
VGTKWYMAPEV [ACVRL1_Y375_R374W]	middle bracket

Lab log: PRSRSYSSTSI [REPS2_Y462] — assign SH2 binding enrichment category
low bracket

# bin lookup: classify REVPVYTDSEP [FAM120B_Y368] by its SH2 binding enrichment
high bracket

Just checking, what class would you give LHAAAYWNALA [UQCRC2_Y182_R183W] here?
high bracket

Form field 'band' for HEHKGYNANFC [TGFB2_Y341_P338H]
middle bracket

Input SDYSRYARTSI [TERT_Y949_S948R] ; output its category
middle bracket

Sort CTTIHYTFMCN [TP53_Y234_N235T_YF] into one of the categories.
high bracket

Where would GASWRYGSGVS [NEU1_Y242] land among the classes by reported SH2 binding enrichment?
low bracket

Band assignment needed for GIATGYLVLKE [DNMT3B_Y588] please.
middle bracket

Note: place this sequence into its band. Item: ARGMEYLAEQK [MST1R_Y1198_G1195S]
middle bracket

Please report the category associated with PLDGEYFTLQV [TP53_Y327_I332V] , nothing else.
low bracket

Consider HSHTRYERNIE [F2_Y434_R431H] . To which SH2 binding enrichment class does it belong?
high bracket

Which category fits this record: KLIETYFSKNY [PLP1_Y50]
low bracket

Could you place IFSGIYFKPES [L2HGDH_Y102_H98Y_YF] in its proper category? Many thanks.
middle bracket

Into which category would you place MCDSHYLESRS [CLK1_Y56] ?
middle bracket

Which class holds GGMAEYTRLHN [EHHADH_Y4] ?
high bracket

For the record LITTLYIGFLG [KCNQ1_Y267] , report the class its SH2 binding enrichment corresponds to.
high bracket

Band for AIMSFYATLID [RYR1_Y2426_A2428T] ?
middle bracket
